Assay: Oral bioavailability in cynomolgus monkey at 1 mg/kg by LC-MS/MS analysis
Type: ADME, organism-based, Macaca fascicularis
Conditions: in vivo

smiles-text	bioavailability [%]
C[C@@H]1OCC2(CCN(c3cnc(Sc4ccnc(N)c4Cl)c(N)n3)CC2)[C@@H]1N	60

====

Assay: Terminal half life in C57BL/6 mouse at 1 mg/kg, iv by LC-MS/MS analysis
Assay type: ADME, organism-based
Conditions: in vivo, read-out: beta t1/2 (converted)

smiles-text	unit-abbrev	half-life
C[C@@H]1OCC2(CCN(c3cnc(Sc4ccnc(N)c4Cl)c(N)n3)CC2)[C@@H]1N	h	2

====

Test: Terminal half life in beagle dog at 0.2 mg/kg, iv by LC-MS/MS analysis
Type: ADME, organism-based, Canis lupus familiaris
Conditions: in vivo, read-out: beta t1/2 (converted)

molecule	half-life, h
C[C@@H]1OCC2(CCN(c3cnc(Sc4ccnc(N)c4Cl)c(N)n3)CC2)[C@@H]1N [BATOPROTAFIB]	9

====

System: A-375
Assay: Antiproliferative activity against human A-375 cells
Assay type: functional, cell-based

smiles-text	IC50 [nM]
Cc1ccc(NC(=O)c2ccnc(C(F)(F)F)c2)cc1-c1cc(OCCO)nc(N2CCOCC2)c1	240

====

Assay: Volume of distribution at steady state in Sprague-Dawley rat at 1 mg/kg, iv by LC-MS/MS analysis
Assay type: ADME, organism-based
Settings: in vivo, read-out: Vdss

smiles-text	unit-abbrev	Vd
C[C@@H]1OCC2(CCN(c3cnc(Sc4ccnc(N)c4Cl)c(N)n3)CC2)[C@@H]1N	L/kg	7

====

Assay: Oral bioavailability in Sprague-Dawley rat at 5 mg/kg by LC-MS/MS analysis
Assay type: ADME, organism-based
Conditions: in vivo

compound	bioavailability [%]
C[C@@H]1OCC2(CCN(c3cnc(Sc4ccnc(N)c4Cl)c(N)n3)CC2)[C@@H]1N [BATOPROTAFIB]	100

====

Target: Tyrosine-protein phosphatase non-receptor type 11 (Homo sapiens)
Sequence (Q06124 whole entry): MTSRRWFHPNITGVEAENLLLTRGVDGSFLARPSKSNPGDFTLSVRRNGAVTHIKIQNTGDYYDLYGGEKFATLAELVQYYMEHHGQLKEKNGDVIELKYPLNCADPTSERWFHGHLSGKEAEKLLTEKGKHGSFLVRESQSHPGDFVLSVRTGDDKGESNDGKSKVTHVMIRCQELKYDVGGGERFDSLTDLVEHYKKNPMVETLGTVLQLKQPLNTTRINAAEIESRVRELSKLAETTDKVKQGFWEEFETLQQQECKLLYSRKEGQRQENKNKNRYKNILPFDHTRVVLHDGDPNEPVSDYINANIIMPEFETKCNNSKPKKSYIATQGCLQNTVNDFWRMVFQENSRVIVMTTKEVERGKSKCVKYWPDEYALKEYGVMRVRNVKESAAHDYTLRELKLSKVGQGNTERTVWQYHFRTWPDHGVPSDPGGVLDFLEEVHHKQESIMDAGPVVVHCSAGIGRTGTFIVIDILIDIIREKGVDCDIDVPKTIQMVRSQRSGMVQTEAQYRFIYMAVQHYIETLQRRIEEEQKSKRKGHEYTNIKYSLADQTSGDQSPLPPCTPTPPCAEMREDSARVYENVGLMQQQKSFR
pIC50: −log10 of the molar value.
The following compounds are shown together with reported pIC50 values.
parameter-measured: pIC50

smiles-text	system-under-test	parameter-measured	observed-value
CC1(CN)CCN(c2cnc(Sc3ccnc(N)c3Cl)c(N)n2)CC1	Tyrosine-protein phosphatase non-receptor type 11 (Homo sapiens)	pIC50	6.91
Nc1nc(N2CCC3(CCC[C@H]3N)CC2)cnc1Sc1ccnc(N)c1Cl	Tyrosine-protein phosphatase non-receptor type 11 (Homo sapiens)	pIC50	7.62
CC1(N)CCN(c2cnc(Sc3cccc(Cl)c3Cl)c(N)n2)CC1	Tyrosine-protein phosphatase non-receptor type 11 (Homo sapiens)	pIC50	6.71
CC1(N)CCN(c2cnc(Sc3ccccc3Cl)c(N)n2)CC1	Tyrosine-protein phosphatase non-receptor type 11 (Homo sapiens)	pIC50	6.60
CC1(CN)CCN(c2cnc(Sc3cccc(N)c3Cl)c(N)n2)CC1	Tyrosine-protein phosphatase non-receptor type 11 (Homo sapiens)	pIC50	7.05
CC1(N)CCN(c2cnc(Sc3cccnc3C(F)(F)F)c(N)n2)CC1	Tyrosine-protein phosphatase non-receptor type 11 (Homo sapiens)	pIC50	6.47
Nc1nc(N2CCC3(CC2)COC[C@H]3N)cnc1Sc1ccnc(N)c1Cl	Tyrosine-protein phosphatase non-receptor type 11 (Homo sapiens)	pIC50	7.00
CC1(CN)CCN(c2cnc(Sc3cccc(Cl)c3Cl)c(N)n2)CC1	Tyrosine-protein phosphatase non-receptor type 11 (Homo sapiens)	pIC50	7.06

====

Test: Clearance in Sprague-Dawley rat at 1 mg/kg, iv by LC-MS/MS analysis
Type: ADME, organism-based
Settings: in vivo
parameter-measured: clearance (mL/min/kg)

smiles-text	parameter-measured	observed-value
C[C@@H]1OCC2(CCN(c3cnc(Sc4ccnc(N)c4Cl)c(N)n3)CC2)[C@@H]1N	clearance	15
